Assay Target: Integrin alpha-4/beta-1 (Homo sapiens, UniProt P05556+P13612)
Sequence (P05556 whole entry): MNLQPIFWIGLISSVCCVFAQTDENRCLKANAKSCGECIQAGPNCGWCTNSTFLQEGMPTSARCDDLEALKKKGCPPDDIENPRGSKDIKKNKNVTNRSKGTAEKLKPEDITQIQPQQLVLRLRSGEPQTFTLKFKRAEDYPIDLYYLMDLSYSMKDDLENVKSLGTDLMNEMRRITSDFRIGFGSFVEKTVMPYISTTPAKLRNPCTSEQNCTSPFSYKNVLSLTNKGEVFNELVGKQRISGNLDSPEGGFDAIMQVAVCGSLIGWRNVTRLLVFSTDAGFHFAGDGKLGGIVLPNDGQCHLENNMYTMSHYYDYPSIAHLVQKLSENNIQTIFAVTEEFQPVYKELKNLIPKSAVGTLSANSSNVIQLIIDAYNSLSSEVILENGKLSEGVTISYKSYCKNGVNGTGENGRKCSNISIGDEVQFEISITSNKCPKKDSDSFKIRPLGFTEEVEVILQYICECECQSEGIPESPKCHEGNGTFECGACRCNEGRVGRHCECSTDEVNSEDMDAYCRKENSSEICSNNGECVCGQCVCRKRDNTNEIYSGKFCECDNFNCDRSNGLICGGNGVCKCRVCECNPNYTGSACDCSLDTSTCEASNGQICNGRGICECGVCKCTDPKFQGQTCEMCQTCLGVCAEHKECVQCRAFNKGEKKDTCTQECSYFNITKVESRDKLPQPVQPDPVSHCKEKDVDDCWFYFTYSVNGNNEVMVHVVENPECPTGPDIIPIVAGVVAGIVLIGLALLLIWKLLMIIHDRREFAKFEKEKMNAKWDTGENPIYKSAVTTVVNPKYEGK
Sequence (P13612 whole entry): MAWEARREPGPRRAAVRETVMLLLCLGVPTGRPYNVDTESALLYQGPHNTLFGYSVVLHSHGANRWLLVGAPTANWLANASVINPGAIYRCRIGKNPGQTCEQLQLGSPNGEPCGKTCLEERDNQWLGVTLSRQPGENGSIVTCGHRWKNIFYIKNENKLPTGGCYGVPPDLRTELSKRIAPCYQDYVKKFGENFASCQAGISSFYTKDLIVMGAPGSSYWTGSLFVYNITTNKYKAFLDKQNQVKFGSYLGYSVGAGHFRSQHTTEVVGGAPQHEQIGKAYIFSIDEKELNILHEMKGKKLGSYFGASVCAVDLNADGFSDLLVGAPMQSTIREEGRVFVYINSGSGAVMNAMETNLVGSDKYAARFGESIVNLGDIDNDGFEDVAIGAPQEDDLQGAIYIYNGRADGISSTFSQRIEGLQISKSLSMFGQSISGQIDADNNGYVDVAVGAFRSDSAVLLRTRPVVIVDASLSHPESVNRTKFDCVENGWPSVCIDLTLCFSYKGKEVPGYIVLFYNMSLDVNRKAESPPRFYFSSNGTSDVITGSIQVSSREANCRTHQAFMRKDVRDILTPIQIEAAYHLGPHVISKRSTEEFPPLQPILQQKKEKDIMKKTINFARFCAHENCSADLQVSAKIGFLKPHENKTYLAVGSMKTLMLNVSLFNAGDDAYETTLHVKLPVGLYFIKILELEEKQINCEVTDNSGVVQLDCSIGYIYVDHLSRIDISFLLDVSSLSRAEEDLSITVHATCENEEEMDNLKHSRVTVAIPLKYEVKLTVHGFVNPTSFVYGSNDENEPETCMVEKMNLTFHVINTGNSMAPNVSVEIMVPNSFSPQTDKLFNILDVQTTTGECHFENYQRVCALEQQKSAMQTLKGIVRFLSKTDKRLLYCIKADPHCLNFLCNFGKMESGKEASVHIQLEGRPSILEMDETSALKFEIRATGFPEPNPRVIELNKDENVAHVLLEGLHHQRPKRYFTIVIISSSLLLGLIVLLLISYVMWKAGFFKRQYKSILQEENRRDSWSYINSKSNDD
Method Notes: Inhibition of fluorescent Ramos cell adhesion to fibronectin by Very late antigen 4 (VLA-4)
Type: cell-based
Task for the reader: assign each of the following compounds its reported pIC50.
One number for each entry, as −log10 of the molar value.

Consider the worked cases shown below.
COCCCN(CC(=O)N[C@@H](CC(=O)O)c1ccc(OC)c(OC)c1)C(=O)Cc1ccc(NC(=O)Nc2ccccc2C)cc1    7.87
C/C=C/[C@H](CC(=O)O)NC(=O)CN(CCCOC)C(=O)Cc1ccc(NC(=O)Nc2ccccc2C)cc1    8.10
COCCCN(CC(=O)N[C@@H](CC(=O)O)c1ccc(OC)cc1)C(=O)Cc1ccc(NC(=O)Nc2ccccc2C)cc1    7.44

Any idea what pIC50 was measured for COCCCN(CC(=O)N[C@@H](CC(=O)O)c1ccccc1)C(=O)Cc1ccc(NC(=O)Nc2ccccc2C)cc1 ?
7.84
